Where do these numbers come from? They come from paper PMC5467694.

# Tgt: recombinant influenza virus NA (Influenza A virus, UniProt Q30NP8)
# Sequence (Q30NP8 whole entry, looked up): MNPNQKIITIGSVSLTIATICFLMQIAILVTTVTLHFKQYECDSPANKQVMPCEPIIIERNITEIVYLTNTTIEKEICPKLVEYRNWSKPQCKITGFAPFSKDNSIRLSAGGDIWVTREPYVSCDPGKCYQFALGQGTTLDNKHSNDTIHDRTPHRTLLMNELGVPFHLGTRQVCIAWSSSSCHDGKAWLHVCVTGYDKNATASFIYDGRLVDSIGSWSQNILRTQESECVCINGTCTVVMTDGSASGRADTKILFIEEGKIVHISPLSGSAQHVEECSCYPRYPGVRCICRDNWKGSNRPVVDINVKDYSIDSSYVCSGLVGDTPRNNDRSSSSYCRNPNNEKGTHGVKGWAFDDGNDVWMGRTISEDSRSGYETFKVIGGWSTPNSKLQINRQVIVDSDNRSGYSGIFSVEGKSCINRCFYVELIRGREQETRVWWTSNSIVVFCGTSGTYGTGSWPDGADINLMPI
# Test Method Notes: NA inhibition assay, recombinant influenza virus NA
Measurement Type: IC50

1) CCOC(=O)C1=C[C@@H](OC(CC)CC)[C@H](NC(C)=O)[C@@H](N)C1 [OP, oseltamivir phosphate] = ~10 µM
